Item-by-item account of pIC50
tested on: MDA-MB-453; assay: In vitro cytotoxicity assay (MTT); assay type: cell-based, human; conditions: Homo sapiens, MDA-MB-453, 144 h, 6 days incubation
pIC50 is defined as minus the log10 of a concentration measured in mol/L.

compound	pIC50
Brc1cnn2c(NCc3ccc(-c4ccccn4)cc3)nc(N3CCNCC3)nc12 [Compound 2601]	8.72
N[C@H]1CC[C@H](Nc2nc(NCc3ccc(-c4ccccn4)cc3)n3ncc(I)c3n2)CC1 [Compound 2590]	8.75
N[C@H]1CCC[C@@H](Nc2nc(NCc3ccc(-c4ccccn4)cc3)n3ncc(Br)c3n2)C1 [Compound 2670]	8.04

Now look at this entry.
[in] What value of measured pIC50 is listed for N[C@H]1CCCC[C@@H]1Nc1nc(NCc2ccc(-c3ccccn3)cc2)n2ncc(Br)c2n1 [Compound 2671] ?
[out] 8.65

* * *

target: BCRP (Homo sapiens); construct: host or cells: MDCK-BCRP (Preadyport); experiment: BCRP efflux substrate assay in MDCK-BCRP; format: in vitro ADME; details: dog; MDCK-BCRP, 5µM, 60 min, pH 7.4; read-out: Papp B (acceptor) to A (donor)
Sequence (Q9UNQ0 whole entry): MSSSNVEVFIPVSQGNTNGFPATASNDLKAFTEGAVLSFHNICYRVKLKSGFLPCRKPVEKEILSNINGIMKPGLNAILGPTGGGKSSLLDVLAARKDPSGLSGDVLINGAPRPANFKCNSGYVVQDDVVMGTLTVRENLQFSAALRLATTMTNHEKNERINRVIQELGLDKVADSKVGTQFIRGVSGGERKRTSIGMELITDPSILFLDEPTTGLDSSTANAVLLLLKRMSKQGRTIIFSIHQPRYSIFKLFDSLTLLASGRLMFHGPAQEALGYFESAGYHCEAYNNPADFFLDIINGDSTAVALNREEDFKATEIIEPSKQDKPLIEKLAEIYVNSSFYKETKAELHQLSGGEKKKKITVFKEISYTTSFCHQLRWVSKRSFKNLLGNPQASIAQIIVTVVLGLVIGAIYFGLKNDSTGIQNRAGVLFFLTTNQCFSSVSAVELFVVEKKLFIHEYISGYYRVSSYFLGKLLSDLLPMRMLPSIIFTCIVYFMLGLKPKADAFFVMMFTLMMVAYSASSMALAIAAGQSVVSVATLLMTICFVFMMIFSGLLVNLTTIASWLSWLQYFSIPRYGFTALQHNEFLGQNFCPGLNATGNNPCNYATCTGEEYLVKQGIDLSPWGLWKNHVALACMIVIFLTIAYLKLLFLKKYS
Parameter class (string): assigned from measured Papp B→A at 60 min, 5 µM. Ranges: low = under 40 ×10⁻⁶ cm/s, mid = from 40 ×10⁻⁶ cm/s up to 50 ×10⁻⁶ cm/s, high = 50 ×10⁻⁶ cm/s and over

molecule	class-label
N[C@H]1CCC[C@@H]1Nc1nc(NCc2ccc(-c3ccccn3)cc2)n2ncc(Br)c2n1 [Compound 2668]	high
CN(CCN)c1nc(NCc2ccc(-c3ccccn3)cc2)n2ncc(Br)c2n1 [Compound 2600]	mid
NC[C@H]1CC[C@H](Nc2nc(NCc3ccc(-c4ccccn4)cc3)n3ncc(Br)c3n2)CC1 [Compound 2636]	low
CC[C@@]1(O)C(=O)OCc2c1cc1n(c2=O)Cc2c-1nc1cc(F)c(C)c3c1c2[C@@H](N)CC3 [Exatecan, reference compound]	low
Brc1cnn2c(NCc3ccc(-c4ccccn4)cc3)nc(NC[C@@H]3CCCN3)nc12 [Compound 2571]	high

[in] Categorize the following entry: N[C@H]1CCCC[C@@H]1Nc1nc(NCc2ccc(-c3ccccn3)cc2)n2ncc(Br)c2n1 [Compound 2671]
[out] mid

[in] Categorize the following entry: N[C@H]1CCN(c2nc(NCc3ccc(-c4ccccn4)cc3)n3ncc(Br)c3n2)C1 [Compound 2655]
[out] low

[in] Categorize the following entry: NCC1CCN(c2nc(NCc3ccc(-c4ccccn4)cc3)n3ncc(Br)c3n2)CC1 [Compound 2560]
[out] low

[in] Categorize the following entry: N[C@H]1CC[C@@H](Nc2nc(NCc3ccc(-c4ccccn4)cc3)n3ncc(Br)c3n2)CC1 [Compound 2568]
[out] high

[in] Categorize the following entry: N[C@H]1CCC[C@@H](Nc2nc(NCc3ccc(-c4ccccn4)cc3)n3ncc(Br)c3n2)C1 [Compound 2670]
[out] low

* * *

Item-by-item account of pIC50
test system: NCI-N87; assay: In vitro cytotoxicity assay (MTT); assay type: cell-based, human; conditions: Homo sapiens, NCI-N87, 144 h, 6 days incubation
pIC50 is defined as minus the log10 of a concentration measured in mol/L.

Examples from the recorded data:
chem-smiles	system-tested	pIC50
N[C@H]1CC[C@H](CNc2nc(NCc3ccc(-c4ccccn4)cc3)n3ncc(Br)c3n2)CC1	NCI-N87	7.80
N[C@H]1CC[C@H](Nc2nc(NCc3ccc(-c4ccccn4)cc3)n3ncc(Cl)c3n2)CC1	NCI-N87	9.03

Now look at this entry.
[in] What value of measured pIC50 is listed for NCC1CCN(c2nc(NCc3ccc(-c4ccccn4)cc3)n3ncc(Br)c3n2)CC1 ?
[out] 8.48
